# TARGET_OR_TEST_SYSTEM: Sphingosine 1-phosphate receptor 5 (Homo sapiens, UniProt Q9H228)
# Sequence (Q9H228 whole entry): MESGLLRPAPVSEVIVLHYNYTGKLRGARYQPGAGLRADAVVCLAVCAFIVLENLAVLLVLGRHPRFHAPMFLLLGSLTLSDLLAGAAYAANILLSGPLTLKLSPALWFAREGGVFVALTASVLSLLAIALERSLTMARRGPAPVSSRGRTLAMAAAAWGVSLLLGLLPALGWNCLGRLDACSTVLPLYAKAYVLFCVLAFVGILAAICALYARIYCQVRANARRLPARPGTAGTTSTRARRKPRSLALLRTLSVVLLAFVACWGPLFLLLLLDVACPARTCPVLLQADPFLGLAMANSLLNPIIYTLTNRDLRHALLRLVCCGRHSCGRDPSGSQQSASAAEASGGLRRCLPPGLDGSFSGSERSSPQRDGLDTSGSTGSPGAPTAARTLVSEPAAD
# METHOD_SUMMARY: Agonist activity at S1P5R up to 25 uM
# Type: functional
OUTCOME_MEASURE: EC50

Worked examples, 5 compounds total:
Cc1ccc(OCCOc2ccc(Br)cc2C(F)(F)F)c([N+](=O)[O-])n1 Not Active
Cc1ccc(OCCOc2c(Cl)cc(Cl)cc2Cl)c([N+](=O)[O-])n1 Not Active
Clc1ccc(OCCOc2ccc(Br)nc2Br)c(Cl)c1 Not Active
FCc1ccc(OCCOc2ccc(Cl)cc2Cl)c(Cl)n1 Not Active
Cc1ccc(OCCOc2ccc(Cl)cc2Cl)c([N+](=O)[O-])n1 Not Active

Request: Give Sphingosine 1-phosphate receptor 5 (Homo sapiens, UniProt Q9H228) EC50 for O=[N+]([O-])c1nc(Cl)ccc1OCCOc1ccc(Cl)cc1Cl
Response: Not Active

Request: Give Sphingosine 1-phosphate receptor 5 (Homo sapiens, UniProt Q9H228) EC50 for Cc1ccc(OCCOc2ccc(Cl)cc2Br)c([N+](=O)[O-])n1
Response: Not Active

Request: Give Sphingosine 1-phosphate receptor 5 (Homo sapiens, UniProt Q9H228) EC50 for Cc1ccc(OCCOc2ccc(Cl)cc2Cl)c(I)n1
Response: Not Active

Request: Give Sphingosine 1-phosphate receptor 5 (Homo sapiens, UniProt Q9H228) EC50 for Cc1ccc(OCCOc2ccc(Br)cc2Cl)c([N+](=O)[O-])n1
Response: Not Active

Request: Give Sphingosine 1-phosphate receptor 5 (Homo sapiens, UniProt Q9H228) EC50 for OCc1ccc(OCCOc2ccc(Cl)cc2Cl)c(I)n1
Response: Not Active

Request: Give Sphingosine 1-phosphate receptor 5 (Homo sapiens, UniProt Q9H228) EC50 for Cc1ccc(OCCOc2ccc(Cl)cc2Cl)c(Br)n1
Response: Not Active

###

# TARGET_OR_TEST_SYSTEM: Sphingosine 1-phosphate receptor 4 (Homo sapiens)
# Sequence (O95977 whole entry): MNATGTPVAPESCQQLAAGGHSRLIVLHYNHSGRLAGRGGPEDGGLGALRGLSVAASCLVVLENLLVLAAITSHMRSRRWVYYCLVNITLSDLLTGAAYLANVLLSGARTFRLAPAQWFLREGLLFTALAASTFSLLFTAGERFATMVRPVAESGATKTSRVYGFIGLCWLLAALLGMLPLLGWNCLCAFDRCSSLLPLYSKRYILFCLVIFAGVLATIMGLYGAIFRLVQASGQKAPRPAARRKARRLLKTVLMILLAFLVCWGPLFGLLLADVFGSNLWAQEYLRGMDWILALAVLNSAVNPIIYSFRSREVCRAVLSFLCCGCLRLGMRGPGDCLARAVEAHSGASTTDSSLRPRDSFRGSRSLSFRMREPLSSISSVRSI
# METHOD_SUMMARY: Agonist activity at human S1P4R expressed in human U2OS cells containing EDG6 gene co-expressing GAL4-VP16 and beta-arrestin/TEV protease assessed as migration of VP16-GAL4 into nucleus by […] based beta-lactamase reporter gene assay
# Type: functional, cell-based
Threshold-based label: EC50 under 3000 nM gives Y, EC50 not under 3000 nM gives N.

Request: Check if EC50 falls below 3000 nM for Cc1ccc(OCCOc2ccc(Cl)cc2Cl)c([N+](=O)[O-])n1 .
Response: Y

Request: Check if EC50 falls below 3000 nM for COc1ccc(OCCOc2ccc(C)nc2[N+](=O)[O-])c(Cl)c1 .
Response: N

Request: Check if EC50 falls below 3000 nM for Clc1ccc(OCCOc2cccnc2Br)c(Cl)c1 .
Response: Y

Request: Check if EC50 falls below 3000 nM for Clc1ccc(OCCOc2ccc(Br)nc2Br)c(Cl)c1 .
Response: Y

Request: Check if EC50 falls below 3000 nM for Cc1ccc(OCCOc2ccc(Cl)cc2Br)c([N+](=O)[O-])n1 .
Response: Y

Request: Check if EC50 falls below 3000 nM for FCc1ccc(OCCOc2ccc(Cl)cc2Cl)c(Cl)n1 .
Response: Y

Request: Check if EC50 falls below 3000 nM for Cc1ccc(OCCOc2ccc(F)cc2Cl)c([N+](=O)[O-])n1 .
Response: Y

Request: Check if EC50 falls below 3000 nM for Cc1ccc(OCCOc2ccc(Cl)cc2Cl)c(C)n1 .
Response: Y

Request: Check if EC50 falls below 3000 nM for Cc1ccc(OCCOc2ccc([N+](=O)[O-])cc2F)c([N+](=O)[O-])n1 .
Response: Y

Request: Check if EC50 falls below 3000 nM for Clc1ccc(OCCOc2ccc(-c3ccccc3)nc2Br)c(Cl)c1 .
Response: N

Request: Check if EC50 falls below 3000 nM for Cc1ccc(OCCOc2ccc(Cl)cc2Cl)c(I)n1 .
Response: Y

Request: Check if EC50 falls below 3000 nM for Cc1ccc(OCCOc2ccc(Br)cc2C(F)(F)F)c([N+](=O)[O-])n1 .
Response: Y

Request: Check if EC50 falls below 3000 nM for Cc1ccc(OCCOc2c(Cl)cc(Cl)cc2Cl)c([N+](=O)[O-])n1 .
Response: Y

Request: Check if EC50 falls below 3000 nM for COC(=O)c1nc(C)ccc1OCCOc1ccc(Cl)cc1Cl .
Response: N

Request: Check if EC50 falls below 3000 nM for Cc1ccc(OCCOc2ccc(Br)cc2Cl)c([N+](=O)[O-])n1 .
Response: Y

Request: Check if EC50 falls below 3000 nM for CCc1nc(C)ccc1OCCOc1ccc(Cl)cc1Cl .
Response: N

Request: Check if EC50 falls below 3000 nM for Cc1ccc(OCCOc2ccc(Cl)cc2Cl)c(Br)n1 .
Response: Y

Request: Check if EC50 falls below 3000 nM for Cc1ccc(OCCOc2ccc(C)nc2[N+](=O)[O-])c(C)c1 .
Response: N

Request: Check if EC50 falls below 3000 nM for OCc1ccc(OCCOc2ccc(Cl)cc2Cl)c(I)n1 .
Response: Y

Request: Check if EC50 falls below 3000 nM for O=[N+]([O-])c1nc(Cl)ccc1OCCOc1ccc(Cl)cc1Cl .
Response: Y

Request: Check if EC50 falls below 3000 nM for Cc1ccc(OCCCc2ccc(Cl)cc2Cl)c([N+](=O)[O-])n1 .
Response: Y

Request: Check if EC50 falls below 3000 nM for O=Cc1ccc(OCCOc2ccc(Cl)cc2Cl)c(I)n1 .
Response: Y

Request: Check if EC50 falls below 3000 nM for Cc1ccc(OCCOc2cc(Cl)cc([N+](=O)[O-])c2)c([N+](=O)[O-])n1 .
Response: N

Numbers sourced from ChEMBL document CHEMBL1932962.
